Provenance of the data: patent US20190248900A1

# experimental-target: T1, M2
# T1 construct: also called PD1 mutant M2
# assay-remarks: scFv-phage ELISA
# note: exactly 0.4 is not below, so it is class 0; use class 1 for OD490 strictly under it

[[record]]
binder = "PD1-45F4 (antibody, V domains shown, scFv-phage in the screening ELISA; later whole IgG) VH: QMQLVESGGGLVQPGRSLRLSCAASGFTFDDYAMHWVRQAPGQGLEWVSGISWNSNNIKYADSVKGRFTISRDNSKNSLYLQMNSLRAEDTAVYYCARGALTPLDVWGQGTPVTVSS VL: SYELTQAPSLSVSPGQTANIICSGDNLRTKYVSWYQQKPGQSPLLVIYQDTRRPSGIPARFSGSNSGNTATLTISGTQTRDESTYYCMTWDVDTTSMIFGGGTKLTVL"
class_name = "class 0"

[[record]]
binder = "PD1-52E8 (antibody, V domains shown, scFv-phage in the screening ELISA; whole IgG in the other assays) VH: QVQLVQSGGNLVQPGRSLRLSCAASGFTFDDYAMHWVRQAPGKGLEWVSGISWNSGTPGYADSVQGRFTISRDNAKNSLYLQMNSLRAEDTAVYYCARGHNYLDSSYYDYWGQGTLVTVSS VL: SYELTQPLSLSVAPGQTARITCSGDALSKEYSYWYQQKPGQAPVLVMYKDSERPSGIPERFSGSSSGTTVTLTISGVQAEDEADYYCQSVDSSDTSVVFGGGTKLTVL"
class_name = "class 1"

[[record]]
binder = "PD1-31F3 (antibody, V domains shown, scFv-phage in the screening ELISA; later whole IgG) VH: QVQLVQSGAEVKKPGSSVKVSCKASGGTFSSYAISWVRQAPGQGLEWMGGIIPLFSTAHSAQKFQGRVTITADESSSTAYMELSSLRSEDTAVYYCAKHKGLPFDWSPDGFDTWGQGTMVTVSS VL: QFVLTQPPSVSGAPGQRVIISCTGSSSNIGAGYDVHWYQQLPGTAPKVLIYGNSDRPSGVPDRFSASKSATSASLAITGLQAEDEADYYCQSYDSSLSGYVFGTGTKVTVL"
class_name = "class 0"

[[record]]
binder = "PD1-49A2 (antibody, V domains shown, scFv-phage in the screening ELISA; whole IgG in the other assays; also called Parent 49A2) VH: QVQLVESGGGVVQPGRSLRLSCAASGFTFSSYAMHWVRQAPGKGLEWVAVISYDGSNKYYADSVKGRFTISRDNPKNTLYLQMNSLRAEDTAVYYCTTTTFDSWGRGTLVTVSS VL: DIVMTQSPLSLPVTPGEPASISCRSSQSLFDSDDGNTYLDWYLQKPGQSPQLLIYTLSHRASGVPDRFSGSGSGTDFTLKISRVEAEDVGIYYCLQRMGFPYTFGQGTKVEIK"
class_name = "class 1"


Query binder follows.
API: query returns whether the binder falls strictly under 0.4 in OD490. Query: PD1-42G4 (antibody, V domains shown, scFv-phage in the screening ELISA; later whole IgG) VH: QVQLVESGGGLVKPGGSLRLSCAASGFTFSDYYMSWIRQAPGKGLEWVSDISASGNSIYYADSVKRRFTISRDNSKNSLYLQMNSLRAEDTAVYYCVTSGPFGEFRNWGLGTLVTVSS VL: DIQMTQSPSSLSASVGDRVTTTCRASQGISSYLAWYQQKPGKAPKLLIYAASTLQSGVPSRFSGSGSGTDFTLTISSLQPEDFATYFCQQSYTSPRTFGQGTKLDIK
class 0
